// provenance: patent US20240270821A1

Target: T1, human GIP receptor (human) (UniProt P48546)
T1 sequence (looked up): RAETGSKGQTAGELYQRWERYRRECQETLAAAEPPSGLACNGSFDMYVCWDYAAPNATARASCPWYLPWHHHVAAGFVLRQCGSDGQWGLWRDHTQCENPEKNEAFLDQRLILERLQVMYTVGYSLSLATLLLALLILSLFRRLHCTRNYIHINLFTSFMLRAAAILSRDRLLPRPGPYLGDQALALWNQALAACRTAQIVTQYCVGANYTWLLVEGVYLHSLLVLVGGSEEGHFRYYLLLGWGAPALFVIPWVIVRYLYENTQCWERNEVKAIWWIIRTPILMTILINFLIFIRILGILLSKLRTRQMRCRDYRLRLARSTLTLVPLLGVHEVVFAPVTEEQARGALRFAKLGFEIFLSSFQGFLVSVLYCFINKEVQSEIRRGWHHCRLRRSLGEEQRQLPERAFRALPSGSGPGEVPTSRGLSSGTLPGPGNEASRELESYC
Assay: cell-based or functional assay
Starred links: 1 amine or outer side, 2 acyl side, 3 side chain; linkers in the order of their positions; H or OH if unused. Non-standard residues stand in square brackets, D forms with d. Groups on a side chain read outwards from the residue. No end group written: not given here. *: point of attachment. C20 diacid = O=C(O)CCCCCCCCCCCCCCCCCCC(=O)*; γGlu = O=C(O)[C@H](CCC(=O)[*:2])N[*:1]; αMeL = CC(C)C[C@](C)(N)C(=O)O; AEEA = NCCOCCOCC(=O)O; Aib = CC(C)(N)C(=O)O
measurementLabel: Relative cAMP EC50 (pM)
Write the answer as a number in pM, unit excluded.

Data point: YXQGTFTSDXXIXLDXKAQXQFIQXLIEXGPSSGAPPPSGGGE (not fully specified; non-natural residues (Aib, 4Pal, αMeS, Orn, Me4Pal); lipidated Lys; C-amide; synthetic construct; SITE 2: note = 2-Aminoisobutyric Acid; SITE 10: note = 3-(4-Pyridyl)-L-alanine; SITE 11: note = alpha-methyl-L-serine; SITE 13: note = alpha-methyl-leucine; SITE 16: note = L-ornithine; SITE 17: note = Lysine is chemically modified through conjugation of the epsilon-amino group) [Example 1136] ; Relative cAMP EC50 = 13.1

Data point: YXQGTFTSDXXQXLDXKAQXQFIQXLLEXGPSSGAPPPSGGGE (not fully specified; non-natural residues, acylated Lys, C-terminal amide; synthetic construct; SITE 2: note = 2-Aminoisobutyric Acid; SITE 10: note = 3-(4-Pyridyl)-L-alanine; SITE 11: note = alpha-methyl-L-serine; SITE 13: note = alpha-methyl-leucine; SITE 16: note = L-ornithine; SITE 17: note = Lysine is chemically modified through conjugation of the epsilon-amino group) [Example 1138] ; Relative cAMP EC50 = 49.1

Data point: YXQGTFTSDFSQXLDKKAQXAFIEYLLEXGESSGEPPPSGS (synthetic construct; SITE 2: note = 2-Aminoisobutyric Acid; SITE 13: note = alpha-methyl-leucine; SITE 17: note = Lysine is chemically modified through conjugation of the epsilon-amino group of the Lysine side chain with (2-[2-(2-Amino-ethoxy)-ethoxy]-acetyl)-(gamma-Glu)-CO-(CH2) 16-CO2H; SITE 20: n) [Example 788] ; Relative cAMP EC50 = 92.3

Data point: Y[Aib]QGTFTSDYSI[αMeL]LDKQAAK([AEEA-AEEA-γGlu-C20 diacid])QFVEWLIA[Aib]GPSSGEPPPSEG-NH2 [Example 326] ; Relative cAMP EC50 = 300

Data point: YXQGTFTSDXSQXLDXKAQXAFIEXLLAGGPSSGAPPPSGSEEE (Lys acylated γGlu-C18 diacid; non-natural residues; C-amide; synthetic construct; SITE 2: note = 2-Aminoisobutyric Acid; SITE 10: note = 3-(4-Pyridyl)-L-alanine; SITE 13: note = alpha-methyl-leucine; SITE 16: note = L-ornithine; SITE 17: note = Lysine is chemically modified through conjugation of the epsilon-amino group of the Lysine side chain with D-Glutami) [Example 1082] ; Relative cAMP EC50 = 99

Data point: YXQGTFTSDFSRXLDKKAQXAFIEYLIEGGESSGAPPPSGS (non-natural residues; lysine acylated with AEEA linker C18 diacid; C-amide; synthetic construct; SITE 2: note = 2-Aminoisobutyric Acid; SITE 13: note = alpha-methyl-leucine; SITE 17: note = Lysine is chemically modified through conjugation of the epsilon-amino group of the Lysine side chain with (2-[2-(2-Amino-ethoxy)-ethoxy]-acetyl)-(gamma-Glu)-CO-(CH2) 16-CO2H; SITE 20: n) [Example 220] ; Relative cAMP EC50 = 411
